Assign inhibition to each entry below.
Biological target: Ribosomal protein S6 kinase alpha-5 (Homo sapiens) (UniProt O75582);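 note: mean inhibition of MSK1 reported, from a GSK PKIS inhibitor set screen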
Sequence (O75582 whole entry, looked up): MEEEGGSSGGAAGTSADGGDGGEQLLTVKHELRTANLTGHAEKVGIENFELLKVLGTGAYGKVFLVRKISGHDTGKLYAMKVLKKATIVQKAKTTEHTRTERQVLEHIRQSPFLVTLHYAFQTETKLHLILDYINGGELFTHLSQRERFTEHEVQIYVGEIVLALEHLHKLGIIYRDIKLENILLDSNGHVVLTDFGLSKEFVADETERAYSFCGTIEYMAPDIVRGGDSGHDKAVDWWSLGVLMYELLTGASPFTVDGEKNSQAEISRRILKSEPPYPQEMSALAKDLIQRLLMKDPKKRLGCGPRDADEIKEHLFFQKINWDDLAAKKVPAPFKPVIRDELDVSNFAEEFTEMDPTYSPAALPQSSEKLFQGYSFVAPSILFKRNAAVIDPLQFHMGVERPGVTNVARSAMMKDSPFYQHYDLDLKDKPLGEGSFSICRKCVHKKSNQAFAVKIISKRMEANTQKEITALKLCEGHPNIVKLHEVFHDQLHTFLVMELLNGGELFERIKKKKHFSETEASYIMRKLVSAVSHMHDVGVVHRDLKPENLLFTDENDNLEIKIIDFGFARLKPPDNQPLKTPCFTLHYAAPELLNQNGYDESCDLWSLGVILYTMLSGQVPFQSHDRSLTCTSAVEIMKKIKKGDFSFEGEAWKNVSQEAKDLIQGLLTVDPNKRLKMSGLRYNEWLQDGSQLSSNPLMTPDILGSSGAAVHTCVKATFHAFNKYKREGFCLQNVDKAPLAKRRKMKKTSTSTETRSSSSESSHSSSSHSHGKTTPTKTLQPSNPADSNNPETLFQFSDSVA
Details: at 0.1 µM
Kindly provide the numeric value in % only, without the unit symbol.

Ask: So what does the record say about inhibition for CC(=O)Nc1cccc(C#Cc2cncnc2Nc2ccc(OCc3cccc(F)c3)c(Cl)c2)n1 ?
Reply: 8.63

Ask: So what does the record say about inhibition for CS(=O)(=O)CCNCc1nc(-c2ccc3ncnc(Nc4ccc(F)c(Cl)c4)c3c2)cs1 ?
Reply: 1.46

Ask: So what does the record say about inhibition for Cc1nnc(-c2ccc(C)c(-c3ccc(C(=O)Nc4cccc(C#N)c4)cc3)c2)o1 ?
Reply: 1.21

Ask: So what does the record say about inhibition for COc1cc2ncn(-c3cc(O[C@@H](C)c4ccccc4Cl)c(C(N)=O)s3)c2cc1OC ?
Reply: 11.4

Ask: So what does the record say about inhibition for Fc1cccc(COc2ccc(Nc3ncnc4sc(-c5cccs5)cc34)cc2Cl)c1 ?
Reply: -5.35

Ask: So what does the record say about inhibition for COC(=O)Nc1nc2cc(Oc3ccc(NC(=O)Nc4cccc(C(=O)O)c4)cc3)ccc2[nH]1 ?
Reply: -0.25

Ask: So what does the record say about inhibition for c1cnn2ncc(-c3ccnc(Nc4ccc5c(c4)OCCO5)n3)c2c1 ?
Reply: 4.5

Ask: So what does the record say about inhibition for CC1=C(C(=O)Nc2ccc3[nH]ncc3c2)C(c2ccc3ccccc3c2)CC(=O)N1 (stereo not given) ?
Reply: 10.7

Ask: So what does the record say about inhibition for CCn1c(-c2nonc2N)nc2cncc(C(=O)N3CC[C@H](N)C3)c21 ?
Reply: 67.9

Ask: So what does the record say about inhibition for COc1ccc(COc2ccc(Cc3cnc(N)nc3N)cc2OC)cc1 ?
Reply: 8.75

Ask: So what does the record say about inhibition for [O-][S+]1CCN(Cc2ccc(-c3ccc4ncnc(Nc5ccc(OCc6ccccc6)c(F)c5)c4c3)o2)CC1 ?
Reply: 1.59

Ask: So what does the record say about inhibition for CC(C)=Cc1cccc2c1/C(=N/Nc1ccc(S(N)(=O)=O)cc1)C(=O)N2 ?
Reply: 7.7

Ask: So what does the record say about inhibition for O=C1NC(=O)C(c2ccc(Cl)cc2)=C1Nc1ccc(Cl)c(C(=O)O)c1 ?
Reply: -1.75

Ask: So what does the record say about inhibition for NC(=O)c1cccc(Nc2nccc(Nc3cccc4[nH]ncc34)n2)c1 ?
Reply: -3.36

Ask: So what does the record say about inhibition for Cc1cccc(-c2n[nH]cc2-c2ccc3ncccc3n2)n1 ?
Reply: 0.79

Ask: So what does the record say about inhibition for O=C(Nc1n[nH]c2nc(-c3ccco3)c(Br)cc12)C1CC1 ?
Reply: 3.55

Ask: So what does the record say about inhibition for COc1ccccc1Nc1ncc(-c2ccccc2)o1 ?
Reply: -3.3

Ask: So what does the record say about inhibition for NCc1ccc(-c2nc(-c3ccc(Cl)c(O)c3)c(-c3ccncc3)[nH]2)cc1 ?
Reply: 0.16

Ask: So what does the record say about inhibition for COC(=O)Nc1nc2cc(Oc3cccc(NC(=O)Nc4cc(C(F)(F)F)ccc4F)c3)ccc2[nH]1 ?
Reply: 0.09

Ask: So what does the record say about inhibition for CC1=C(C(=O)Nc2ccc3[nH]ncc3c2)C(c2ccc(Cl)c(Cl)c2)CC(=O)N1 (stereo not given) ?
Reply: 10.3

----------
Assign inhibition to each entry below.
Target: Receptor tyrosine-protein kinase erbB-2 (Homo sapiens)
Details: at 1 µM
Description: GSK_PKIS: ERBB2 mean inhibition at 1 uM [Nanosyn]
Kindly provide the numeric value in % only, without the unit symbol.

Ask: So what does the record say about inhibition for CCN1CCC(CC(=O)Nc2n[nH]c3nc(-c4cccs4)c(Br)cc23)CC1 ?
Reply: -1.56

Ask: So what does the record say about inhibition for Cc1cccc(-c2n[nH]cc2-c2ccc3ncccc3n2)n1 ?
Reply: -0.81

Ask: So what does the record say about inhibition for CCn1c(-c2nonc2N)nc2c(C#CC(C)(C)O)nc(CN3CCCC3)cc21 ?
Reply: -6.25

Source of measurements: ChEMBL document CHEMBL1961873
